test system: NCI-H292 lung cancer cells; assay: FDA drug screening, complete media vs cholesterol-free media without statin (TABLE 1); assay type: cell-based, human; settings: NCI-H292 cells, cholesterol-free media without statin, FDA drug library screen
Recorded Cholesterol-free, one value per entry.
Recorded metric: Cholesterol-free

| Compound | Recorded metric | Readout number |
| --- | --- | --- |
| CC(=O)Nc1nnc(S(N)(=O)=O)s1 [Acetazolamide] | Cholesterol-free | 0.821 |
| COc1ccc2[n-]c([S+]([O-])Cc3ncc(C)c(OC)c3C)nc2c1.COc1ccc2[n-]c([S+]([O-])Cc3ncc(C)c(OC)c3C)nc2c1.[Mg+2] (stereo not shown) | Cholesterol-free | 0.6797 |
| CC(C)(C)C(=O)OCOP(=O)(COCCn1cnc2c(N)ncnc21)OCOC(=O)C(C)(C)C | Cholesterol-free | 0.1811 |
| CCC(C)n1ncn(-c2ccc(N3CCN(c4ccc(OCC5COC(Cn6cncn6)(c6ccc(Cl)cc6Cl)O5)cc4)CC3)cc2)c1=O (stereo not shown) | Cholesterol-free | 0.7502 |
| C[C@@H](O)[C@H]1C(=O)N2C(C(=O)O)=C([C@H]3CCCO3)S[C@H]12 [Faropenem sodium] | Cholesterol-free | 0.8692 |
| Cc1ccccc1OCC(O)CO (stereo not shown) | Cholesterol-free | 0.8638 |
| CCCS(=O)(=O)Nc1ccc(F)c(C(=O)c2c[nH]c3ncc(-c4ccc(Cl)cc4)cc23)c1F | Cholesterol-free | 0.6442 |

----------
test system: NCI-H292 lung cancer cells; experiment: FDA drug screening, complete media vs cholesterol-free media without statin (TABLE 1); type: cell-based, human; details: NCI-H292 cells, cholesterol-free media without statin
Where a name gives a salt, the structure may show the parent alone.
Listed below: Cholesterol-free values for each entry.

| Molecule | Cholesterol-free |
| --- | --- |
| C/C=C/C1=C(C(=O)O)N2C(=O)[C@@H](NC(=O)[C@H](N)c3ccc(O)cc3)[C@H]2SC1.O [Cefprozil (monohydrate)] | 1.442 |
| C[C@]1(COc2ccc(N3CCC(Oc4ccc(OC(F)(F)F)cc4)CC3)cc2)Cn2cc([N+](=O)[O-])nc2O1 | 1.106 |
| C#C[C@]1(O)CC[C@H]2[C@@H]3CCc4cc(OC5CCCC5)ccc4[C@H]3CC[C@@]21C | 1.478 |
| CC(C)NCC(O)COc1ccc(CC(N)=O)cc1 (stereo not shown) | 1.429 |
| CC(C)(C)NCC(O)COc1cccc2c1CC(O)C(O)C2 (stereo not shown) | 1.37 |
| CCC[C@@]1(CCc2ccccc2)CC(O)=C([C@H](CC)c2cccc(NS(=O)(=O)c3ccc(C(F)(F)F)cn3)c2)C(=O)O1 | 0.9401 |
| CCOC(=O)[C@H](CCc1ccccc1)N[C@H]1CCc2ccccc2N(CC(=O)O)C1=O [Benazepril (hydrochloride)] | 1.314 |

----------
system: NCI-H292 lung cancer cells; assay: FDA drug screening, complete media vs cholesterol-free media without statin (TABLE 1); assay type: cell-based, human; conditions: complete vs cholesterol-free media; >0 enhanced anti-cancer activity, about 0 neutral, <0 antagonist
Counter-ions that a name gives are not always drawn.

| Molecule | Difference |
| --- | --- |
| NC(=O)CC[C@H](N)C(=O)O [L-Glutamine] | 0.50 |
| Clc1ccc2c(c1)C(N1CCNCC1)=Nc1ccccc1O2 [Amoxapine] | 0.09 |
| CC(C(=O)O)c1ccc2c(c1)Cc1cccnc1O2 (stereo not drawn) [Pranoprofen] | 0.52 |
| Cc1ccccc1OCC(O)CO (stereo not drawn) [Mephenesin] | 0.60 |
| CC(=O)c1ccc(O)c(C(=O)O)c1 [5-Acetylsalicylic acid] | 0.13 |
| Cc1ccnc2c1NC(=O)c1cccnc1N2C1CC1 [Nevirapine] | 0.37 |
| CN1CCC(=C2c3ccccc3C=Cc3ccccc32)CC1 [Cyproheptadine (hydrochloride sesquihydrate)] | 0.56 |
| CC(C(=O)O)c1ccc(-c2ccccc2)c(F)c1 (stereo not drawn) [Flurbiprofen] | 0.31 |
| CCOC(=O)O[C@]1(C(=O)OCCl)CC[C@H]2[C@@H]3CCC4=CC(=O)C=C[C@]4(C)[C@H]3[C@@H](O)C[C@@]21C [Loteprednol Etabonate] | 0.36 |
| C[C@]12CC[C@H](O)CC1=CC[C@@H]1[C@@H]2CC[C@]2(C)C(c3cccnc3)=CC[C@@H]12 [Abiraterone] | 0.25 |
| Oc1c(I)cc(Cl)c2cccnc12 [Clioquinol] | 0.57 |
| CO[C@H]1/C=C/O[C@@]2(C)Oc3c(C)c(O)c4c(O)c(c5c(nc6cc(C)ccn65)c4c3C2=O)NC(=O)/C(C)=C\C=C\[C@H](C)[C@H](O)[C@@H](C)[C@@H](O)[C@@H](C)[C@H](OC(C)=O)[C@@H]1C [Rifaximin] | 0.35 |
| C/C=C(/C(=C/C)c1ccc(O)cc1)c1ccc(O)cc1 [Dienestrol] | 0.43 |
| OC[C@H]1O[C@@H](c2ccc(Cl)c(Cc3ccc(O[C@H]4CCOC4)cc3)c2)[C@H](O)[C@@H](O)[C@@H]1O [Empagliflozin] | 0.32 |
| CC(=O)Oc1cc(C(F)(F)F)ccc1C(=O)O [Triflusal] | 0.10 |
| CN(C)c1ccc(O)c2c1C[C@H]1C[C@H]3[C@H](N(C)C)C(O)=C(C(N)=O)C(=O)[C@@]3(O)C(O)=C1C2=O [Minocycline (hydrochloride)] | 0.28 |
| Nc1nc(/C(=C/CC(=O)O)C(=O)N[C@@H]2C(=O)N3C(C(=O)O)=CCS[C@H]23)cs1 [Ceftibuten (dihydrate)] | 0.60 |
| O=C(O)Cc1ccccc1Nc1c(Cl)cccc1Cl [Diclofenac (diethylamine)] | 0.36 |
| CC/C(=C(/CC)c1ccc(O)cc1)c1ccc(O)cc1 [Diethylstilbestrol] | 0.42 |
| O=C(CO)[C@@H](O)[C@H](O)[C@H](O)CO [Fructose] | 0.28 |
| CN(C)CCC=C1c2ccccc2CCc2ccccc21 [Amitriptyline (hydrochloride)] | 0.49 |
| O=C(O)c1cccnc1Nc1cccc(C(F)(F)F)c1 [Niflumic acid] | 0.61 |
| CC[C@H]1OC(=O)[C@H](C)[C@@H](O[C@H]2C[C@@](C)(OC)[C@@H](O)[C@H](C)O2)[C@H](C)[C@@H](O[C@@H]2O[C@H](C)C[C@H](N(C)C)[C@H]2O)[C@](C)(O)C[C@@H](C)[C@@H]2N[C@@H](COCCOC)O[C@H]([C@H]2C)[C@]1(C)O [Dirithromycin] | 0.08 |
| CC1(C)S[C@@H]2[C@H](NC(=O)[C@H](N)c3ccc(O)cc3)C(=O)N2[C@H]1C(=O)O [Amoxicillin (trihydrate)] | 0.11 |
| Cc1ncc([N+](=O)[O-])n1CC(O)CCl (stereo not drawn) [Ornidazole] | 0.43 |
| CC(N)C12CC3CC(CC(C3)C1)C2 (stereo not drawn) [Rimantadine (hydrochloride)] | 0.80 |
| CCCS(=O)(=O)Nc1ccc(F)c(C(=O)c2c[nH]c3ncc(-c4ccc(Cl)cc4)cc23)c1F [Vemurafenib] | 0.61 |
| Cc1nnc(NS(=O)(=O)c2ccc(N)cc2)s1 [Sulfamethizole] | 0.58 |
| C=C(CC)C(=O)c1ccc(OCC(=O)O)c(Cl)c1Cl [Ethacrynic acid] | 0.14 |
| Cc1c(C)c2c(c(C)c1O)CCC(C)(CCCC(C)CCCC(C)CCCC(C)C)O2 (racemic) [DL-alpha-Tocopherol] | 0.66 |
| CC(=O)Nc1nnc(S(N)(=O)=O)s1 [Acetazolamide] | 0.12 |
| CN1CCN2c3ccccc3Cc3ccccc3C2C1 (stereo not drawn) [Mianserin (hydrochloride)] | 0.13 |
| CC[C@@H](CO)NCCN[C@@H](CC)CO [Ethambutol (dihydrochloride)] | 0.72 |

----------
tested on: NCI-H292 lung cancer cells; experiment: FDA drug screening, complete media vs cholesterol-free media without statin (TABLE 1); assay type: cell-based, human; conditions: NCI-H292 cells, FDA drug library screen, cholesterol-free media without statin
# cutoff 1 applies to Cholesterol-free; >= gives label 1, < gives label 0

| Molecule | Class label |
| --- | --- |
| Oc1cccc(-c2c3nc(c(-c4cccc(O)c4)c4ccc([nH]4)c(-c4cccc(O)c4)c4nc(c(-c5cccc(O)c5)c5ccc2[nH]5)CC4)C=C3)c1 [Temoporfin] | label 0 |
| COc1ccc(-c2cc(=S)ss2)cc1 [Anethole (trithione)] | label 1 |
| C[C@H](CCC(=O)NCCS(=O)(=O)O)[C@H]1CC[C@H]2[C@@H]3[C@H](O)C[C@@H]4C[C@H](O)CC[C@]4(C)[C@H]3CC[C@]12C [Taurochenodeoxycholic acid] | label 0 |
| Cl.NCCC[C@H](N)C(=O)O [L-Ornithine (hydrochloride)] | label 1 |
| NCC[C@H](O)C(=O)N[C@@H]1C[C@H](N)[C@@H](O[C@H]2O[C@H](CN)[C@@H](O)[C@H](O)[C@H]2O)[C@H](O)[C@H]1O[C@H]1O[C@H](CO)[C@@H](O)[C@H](N)[C@H]1O [Amikacin (disulfate)] | label 0 |
